tested on: SK-OV-3; test: NCI tumour cell line growth inhibition, 48 h
Active and inactive are the calls of the source. Rule as the data show it: active = GI50 up to about 1.1 µM and inactive = higher.
Outcome (select one): yes (1) = active, no (0) = inactive

Query: recorded result category for CC(C)(C)OC(=O)NC1CCC(C(C)(C)C)CC1 (configuration not stated) in this test
no (0)

Query: recorded result category for COc1cccc(/C=N\NC(=O)C(C)SC(C)C(=O)N/N=C/c2cccc(OC)c2)c1 (configuration not stated) in this test
no (0)

Query: recorded result category for CCNCCNC(=O)c1ccc(I)cc1 in this test
no (0)

Query: recorded result category for C=C(C)C12CC3CC(/C(=N/O)C(C1)/C3=N\O)[C@@]2(C)O (some centres not stated) in this test
no (0)

Query: recorded result category for COc1cc(Oc2c(O)c(C)c(OC)c(C(C)=O)c2O)c(C(C)=O)c(O)c1C in this test
no (0)

Query: recorded result category for O=C(CCCCCCCCC(=O)N1C(=O)CC(=O)N(c2cccc(Cl)c2)C1=S)N1C(=O)CC(=O)N(c2cccc(Cl)c2)C1=S in this test
no (0)

Query: recorded result category for N#CCc1ccccc1/C(C#N)=C1/OC(=N)C(c2ccccc2CC#N)C1=O (configuration not stated) in this test
no (0)

Query: recorded result category for C/C=C(\C)C(=O)OC1C2C(C)C(=O)OC2C(O)C(C)C2C=CC(=O)C21C (configuration not stated) in this test
no (0)

Query: recorded result category for N=C(N)SCc1cccc(-c2nc3ccccc3c(=O)o2)c1 in this test
no (0)

Query: recorded result category for COc1ccc2cc(NC(=O)Nn3cnnc3)ccc2c1 in this test
no (0)

Query: recorded result category for C=CCC(SC)C1=C(C)C(=O)c2ccccc21 (configuration not stated) in this test
no (0)

Query: recorded result category for Cc1ncc(-c2nnnn2-c2ccccc2)c(C(=O)O)n1 in this test
no (0)

Query: recorded result category for O=S1(=O)c2cnccc2N=C(NCc2cccc3ccccc23)N1c1ccccc1 in this test
no (0)

Query: recorded result category for COc1ccc(-c2oc3c(OC)c(OC)c(OC)c(OC)c3c(=O)c2OC)cc1OC in this test
no (0)

Query: recorded result category for COc1ccc(/N=c2/[nH]c(N)c(C(=O)c3ccc(OC)cc3)s2)cc1 in this test
yes (1)

Query: recorded result category for CCCCCCCC1(N=[N+]=[N-])C(=O)Nc2ccccc2C1=O (configuration not stated) in this test
no (0)

Query: recorded result category for NC1=C(Br)C(=O)c2ncccc2C1=O in this test
no (0)

Query: recorded result category for Cc1ccc(C)c2c1CCc1cc3ccccc3nc1-2 in this test
no (0)

Query: recorded result category for CC(=O)n1[nH]c(=O)n(-c2ccc(Cl)cc2)c1=O in this test
no (0)

Query: recorded result category for Cc1nc2ccccc2c(=O)n1NC(=O)c1ccc(N)cc1 in this test
no (0)

Query: recorded result category for CCOc1ccc2c(c1)[n+]([O-])c(-c1ccc([N+](=O)[O-])cc1)c(N)[n+]2[O-] in this test
no (0)

Query: recorded result category for Oc1ccccc1/C=N/Cc1ccco1 in this test
no (0)

Query: recorded result category for C=C1C(=O)OC2/C=C(CO)/C=C\C3OC3(C)CC(OC(=O)/C(C)=C/COC(C)=O)C12 (configuration not stated) in this test
no (0)

Query: recorded result category for CCOC(=O)C(C#N)C1=CC(=O)C(=O)c2ccc(O)cc21 (configuration not stated) in this test
no (0)

Query: recorded result category for CC(C)C(/N=C/c1ccccc1O)C(=O)O (configuration not stated) in this test
no (0)

Query: recorded result category for O=Cc1cn(S(=O)(=O)c2ccccc2)c2ccccc12 in this test
no (0)

Query: recorded result category for O=c1cc(NNc2ccccc2F)[nH]c(=O)[nH]1 in this test
no (0)

Query: recorded result category for COc1cc(C2SC(=N)Nc3c2c(C)nn3C(=O)Cc2ccccc2)ccc1O (configuration not stated) in this test
no (0)

Query: recorded result category for C=C(CN(C)C)C(=O)c1ccc(OC2OC(COC(C)=O)C(OC(C)=O)C(OC(C)=O)C2OC(C)=O)cc1 (configuration not stated) in this test
no (0)

Query: recorded result category for O=C1C=C(N2CCCC2)C=C(N2CCCC2)C1 in this test
no (0)

Query: recorded result category for O=c1c(Cl)c(Cl)c(=O)c2sc3cc(Cl)ccc3[nH]c1=2 in this test
no (0)

Query: recorded result category for C=CC(C)(O)/C=C/C=C(\C)C(CC1OC1(C)C)OC(=O)/C(C)=C\C (configuration not stated) in this test
no (0)

* * *

For each entry below, report its GI50 value.
test system: HOP-92; assay: NCI tumour cell line growth inhibition, 48 h
Activity calls are given as the source filed them. No stated cut-off is given here; in the data, active = GI50 up to about 1.1 µM and inactive = higher.

Noted for c1ccc2c3c([nH]c2c1)C1CCCN1CC3 (stereo not drawn) : its GI50 reads > 10 µM (inactive)

Noted for COC(=O)C1=C(C)NC(C)=C(C(=O)OC)C1c1nc2sccn2c1[N+](=O)[O-] : its GI50 reads > 100 µM (inactive)

Noted for O=S1OC[C@H](CCCl)O1 (stereo partly drawn) : its GI50 reads > 100 µM (inactive)

* * *

system: OVCAR-5; experiment: NCI tumour cell line growth inhibition, 48 h
The source made the active and inactive calls. No stated cut-off is given here; in the data, active = GI50 up to about 1.1 µM and inactive = higher.
For each entry below, report its GI50 value.

Noted for CCC1OC2C(CC=C(C)C)=C3OC(C)(O)C(C)(CC)C(OC(=O)c4ccccc4)C3=C3OC(=O)C=C1C32 (stereo unspecified) : its GI50 reads 54.1 µM (inactive)

Noted for CC1CC2CC(=O)CC3(C1)C2CCCN3CCCO (stereo unspecified) : its GI50 reads > 100 µM (inactive)

Noted for Nc1nc(S)c2c(N)n[nH]c2c1C(=O)Nc1ccc(Cl)cc1 : its GI50 reads > 100 µM (inactive)

Noted for CCOC(=O)CCC(NC(=O)c1ccc(Oc2nc3ccccc3nc2-c2ccccc2)cc1)C(=O)OCC (stereo unspecified) : its GI50 reads > 55 µM (inactive)

Noted for CC(=O)C(=[N+]=[N-])C(=O)OC(C)(C)C#N : its GI50 reads > 10 µM (inactive)

Noted for O=S1OC[C@H](CCCl)O1 (stereo partly specified) : its GI50 reads > 100 µM (inactive)

Noted for O=C(/C=C\c1ccccc1)Oc1ccc(/C=C2\CCC/C(=C\c3ccc(OC(=O)/C=C\c4ccccc4)cc3)C2=O)cc1 : its GI50 reads > 100 µM (inactive)

Noted for Nc1ncnc2c1nc(O)n2-c1ccccc1 : its GI50 reads > 100 µM (inactive)

Noted for COc1cc(S(=O)(=O)Nc2ccc(-c3csc(/N=C\c4cccs4)n3)cc2)ccc1Cl : its GI50 reads > 100 µM (inactive)

Noted for O=S1(=O)[C@H](c2ccccc2)c2c(-c3ccccc3)sc(-c3ccccc3)c2[C@@H]1c1ccccc1 : its GI50 reads 3.81 µM (inactive)

Noted for CN(Cc1cnc2nc(N)nc(N)c2n1)c1ccc(C(=O)NC23CC4CC(CC(C4)C2)C3)cc1 : its GI50 reads 12.2 µM (inactive)

* * *

system: KM12; assay: NCI tumour cell line growth inhibition, 48 h
Activity calls are given as the source filed them. Cut-off read from the data, not from the text of the source: active = GI50 up to about 1.1 µM and inactive = higher.
Outcome (select one): y for active, n for inactive

Query: recorded result category for CNC(=O)N(C)COC in this test
n

Query: recorded result category for CCOC(=O)/C(C(=S)NC)=C(/N)N1CCCC1 in this test
n

Query: recorded result category for COC(=O)/C=C(/C(=O)OC)C1(C)c2cc(C(=O)OC)c(C(=O)OC)c(N)c2C(=N)N1c1ccccc1 (configuration not stated) in this test
n

Query: recorded result category for O=C(c1ccccc1)c1nc2c(Cl)ccc(Cl)c2cc1C(Br)Br in this test
n

Query: recorded result category for CC1(C)CC(=O)C2=C(C1)NC1=C(C2)C(=O)CC(C)(C)C1 in this test
n

Query: recorded result category for O=C1C2=C(c3ccccc31)C(c1ccccc1Cl)N1C(=O)CSC1=N2 (configuration not stated) in this test
n

Query: recorded result category for O=C(O)c1nc2ccccc2nc1Nc1ccc(F)cc1 in this test
n

Query: recorded result category for CCOC(=O)C(C#N)C1=CC(=O)C(=O)c2ccc(O)cc21 (configuration not stated) in this test
n

Query: recorded result category for CC(=O)n1ccc2c(Cl)ncnc21 in this test
n

Query: recorded result category for N#CCc1ccccc1/C(C#N)=C1/OC(=N)C(c2ccccc2CC#N)C1=O (configuration not stated) in this test
n

Query: recorded result category for C#CC[N+](CCO)(CCO)CCCCCCCCCCCCCCCCCC in this test
n

Query: recorded result category for COc1ccc(CC(=O)NCCc2ccc(OC)c(OC)c2)cc1Br in this test
n

Query: recorded result category for CCOC(=O)/C(=C\Nc1c(C)n(C)n(-c2ccccc2)c1=O)C(=O)c1ccccc1 in this test
y

Query: recorded result category for c1ccc(/N=C(\N2CCCC2)N(CCN2CCCC2)c2ccccc2)cc1 in this test
n

Query: recorded result category for COc1ccc(C(=O)C(CO)Oc2ccccc2OC)cc1OC (configuration not stated) in this test
n

Query: recorded result category for O=P(c1ccccc1)(c1ccccc1)N1O[C@@H](c2ccccc2)C=C[C@H]1c1ccccc1 in this test
n

Query: recorded result category for COc1nc(N)c(NC2OC(CO)C(O)C2O)c(=O)[nH]1 (configuration not stated) in this test
n

Query: recorded result category for CCOc1ccc(/N=N/C2C(=O)N(C(=O)CC(=O)Nc3ccc(C)cc3)N=C2C)cc1 (configuration not stated) in this test
n

Query: recorded result category for CC1CC2CC(=O)CC3(C1)C2CCCN3CCCO (configuration not stated) in this test
n

Query: recorded result category for O=S1(=O)c2cnccc2N=C(NCc2cccc3ccccc23)N1c1ccccc1 in this test
n

Query: recorded result category for Cc1ccccc1C(=O)N1CCN(C(=O)c2ccccc2C)CC1 in this test
n

Query: recorded result category for CC1=NNC(=O)C1C1CC(c2c[nH]c3ccccc23)=NN(C(N)=O)C1=O (configuration not stated) in this test
n

Query: recorded result category for COC1OC(CO)C(O)C(O)C1Br (configuration not stated) in this test
n

Query: recorded result category for N#Cc1ccc(N2CCOCC2)cc1 in this test
n

Query: recorded result category for C(=N\c1ccc(-c2nc3ccccc3s2)cc1)/c1ccc[nH]1 in this test
n

Query: recorded result category for CC1(C)OC(=O)N(c2ccccc2)C12C=Cc1cc([N+](=O)[O-])ccc1O2 (configuration not stated) in this test
n

Query: recorded result category for CCN(CC)P1(=S)Oc2ccc3ccccc3c2-c2c(ccc3ccccc23)O1 in this test
n

Query: recorded result category for CC12Cc3cc4c(cc3C1(c1ccc([N+](=O)[O-])cc1)OCCO2)OCO4 (configuration not stated) in this test
n

Query: recorded result category for N#CC(C#N)[C@@H]1CCC=C(Sc2ccccc2)[C@H]1Sc1ccccc1 in this test
n

Query: recorded result category for CC(C)OC(=O)C1(C(C)C)CCc2ccc(C(=O)CCC(=O)O)cc21 (configuration not stated) in this test
n

Query: recorded result category for CN1CC2=C(N=C(S)NC2c2ccc(Cl)cc2)/C(=C/c2ccc(Cl)cc2)C1 (configuration not stated) in this test
n

Query: recorded result category for O=C1Nc2ccc(Br)cc2/C1=N/N1C(=O)C(=O)N(C2CCCCC2)C1=S in this test
n

Query: recorded result category for Cc1ccc(SC2=C(N(C)C)C(=O)c3ccccc3C2=O)cc1 in this test
n

Query: recorded result category for COc1cc(C2SCC(=O)N2c2ccccc2Cl)cc(OC)c1OC (configuration not stated) in this test
n

Query: recorded result category for CC#COS(=O)(=O)c1ccc(C)cc1 in this test
n

Query: recorded result category for COC[C@@H](/N=C/c1ccc([N+](=O)[O-])cc1)C(C)C in this test
n

Query: recorded result category for CC(C)(NC1=NCCO1)c1ccccc1 in this test
n
